Assay comment: amyloid nucleation score (Sup35N fusion, yeast selection) (log enrichment); library NNK1; higher = more nucleation; inactive = no reads after selection;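 further: zero at mode of non-aggregating sequences after 7 days selection at 30°C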
Would you mind labelling by amyloid nucleation score? At or over 0.1 is condition met, under is condition not met.

{"Substance": "ASVYQRWPSFYRRLFVFNVI", "Class label": "condition met"}
{"Substance": "SAVLFIEFCVLIVVMFSIMM", "Class label": "condition not met"}
{"Substance": "GGYVWVTTSGPVFIQVMNMW", "Class label": "condition met"}
{"Substance": "MWTRHCN", "Class label": "condition met"}
{"Substance": "LGRSENDI", "Class label": "condition met"}
{"Substance": "GGGVMASDKPCTRVSLINKM", "Class label": "condition met"}
{"Substance": "QCMARVSQFFWFMLTWK", "Class label": "condition met"}
{"Substance": "IEIGSSF", "Class label": "condition met"}
{"Substance": "LGFQLFNQGWAQNSTPRFSY", "Class label": "condition not met"}
{"Substance": "LPLGYRLLAQPCPESSRTPA", "Class label": "condition not met"}

Consider the record given below.
Prompt: Record MSRIEGHRLDVLSRHFR ; criterion: amyloid nucleation score no lower than 0.1. Met?
Response: condition not met
